I'd appreciate it if you could supply Percent Effect values for the items below.
TARGET_DESC: Tyrosyl-tRNA synthetase, putative (Trypanosoma cruzi (strain CL Brener))
TEST_DESCRIPTION: Trypanosoma cruzi tyrosyl tRNA synthetase (TcYRS) SOP
Format: functional
Parameters: scale not given: direction of the effect not stated beside the values
EXPERIMENTAL_CONTEXT: 30 µM
Please don't drop the unit; write it after the number.

input: Item O=C1COc2c(cccc2C(=O)N2CCCCC2Cn2cccn2)N1 (stereo not given) : provide Percent Effect
output: 11.8%

input: Item `COc1ncccc1NC(=O)c1cccc(C)n1` : provide Percent Effect
output: 25.3%

input: Item `COc1c(C)cnc(CN2CCC(C(=O)N(C)C)CC2)c1C` : provide Percent Effect
output: 7.32%

input: Item Cc1cncc(C2CCCN(C(=O)c3ccc(C)[nH]c3=O)C2)n1 (stereo not given) : provide Percent Effect
output: 17.5%

input: Item `CN(CCNC(=O)c1scnc1Cl)c1ccccc1` : provide Percent Effect
output: 10.3%

input: Item CC(C)CN1C(=O)C2(CCN(Cc3nccs3)C2)c2ccccc21 (stereo not given) : provide Percent Effect
output: 3.66%

input: Item `Cc1cc(C(=O)N2CCc3nnc(N)cc3C2)c(C)n1C1CC1` : provide Percent Effect
output: 17.7%

input: Item Cc1nc2ccccn2c1CN(Cc1cccnc1)CC1CCCO1 (stereo not given) : provide Percent Effect
output: -2.5%

input: Item `CCOc1ccccc1OC1CCN(C(=O)c2nc(=O)[nH][nH]2)CC1` : provide Percent Effect
output: 19.5%

input: Item `O=C(NCCN1CCCCC1)c1ccoc1` : provide Percent Effect
output: 0%

input: Item `Cc1noc(C)c1CN(C)CCC(=O)N1CCc2sccc2C1` : provide Percent Effect
output: 5.13%

input: Item `O=C(NCCC1=CCCCC1)C1CCN(c2ccc3nncn3n2)CC1` : provide Percent Effect
output: 14.6%

input: Item `COCc1ncc(CN2CCC(Oc3ccccc3OC)CC2)cn1` : provide Percent Effect
output: 14.6%

input: Item Cc1ccc(CN2CCC3(CC(C(=O)NCC4CC4)=NO3)C2)cc1C (stereo not given) : provide Percent Effect
output: 7.5%

input: Item CCc1nccn1C1CCCN(C(=O)c2cnn(C)c2C2CC2)C1 (stereo not given) : provide Percent Effect
output: 6.17%

input: Item COc1ccc(CC(=O)N2CCCCC2Cn2cccn2)cc1OC (stereo not given) : provide Percent Effect
output: 10.4%

input: Item CCc1nccn1C1CCCN(C(=O)c2csc(NC(C)=O)n2)C1 (stereo not given) : provide Percent Effect
output: 11.8%

input: Item Cc1cc2n(n1)CC(CNC1CCN(c3ccc(F)cc3)CC1)CN2 (stereo not given) : provide Percent Effect
output: 18.5%

input: Item CC(Cn1ccnc1)NC(=O)NCCc1ccc2c(c1)OCCO2 (stereo not given) : provide Percent Effect
output: 2.44%

input: Item CCc1noc(C(C)N2CCN(c3ccc(C#N)cc3F)CC2)n1 (stereo not given) : provide Percent Effect
output: 13%

input: Item COc1cccc2ccn(CCC(=O)N3CCCC(C(=O)O)C3)c12 (stereo not given) : provide Percent Effect
output: 10.4%

input: Item Cc1nc(CN2CCCC(NCc3ccsc3)C2)no1 (stereo not given) : provide Percent Effect
output: 12.2%

input: Item `CC(C)CNC(=O)c1c(-n2cnnn2)sc2c1CCC2` : provide Percent Effect
output: 15.6%

input: Item `Cn1ccc(CN2CCC(CO)CC2)cc1=O` : provide Percent Effect
output: 10.1%

input: Item `O=C(c1ccoc1)N1CCCn2cnc(COCC3CC3)c2C1` : provide Percent Effect
output: 15.4%

input: Item Cn1cnc2c1C(COCC1CC1)CN(Cc1ccc3c(c1)OCO3)C2 (stereo not given) : provide Percent Effect
output: -1.22%

input: Item `CC(=O)N1CCO[C@@H]2CN(C(=O)c3cc(C)oc3C)CC[C@@H]2C1` : provide Percent Effect
output: 0%

input: Item `c1cnc(NCc2ncn3c2CN(Cc2cccnc2)CCC3)nc1` : provide Percent Effect
output: 8.54%

input: Item `CC(C)C(=O)N1CCN(Cc2csc(-c3ncccn3)n2)CC1` : provide Percent Effect
output: 10.4%

input: Item `Cn1cc(CN2C[C@@H]3COC[C@]3(CNC(=O)c3ccsc3)C2)cn1` : provide Percent Effect
output: 0%

input: Item Cc1cnn(C(C)C2CC2)c1NC(=O)c1ccncc1 (stereo not given) : provide Percent Effect
output: 0%

input: Item `CCn1ncc(NC(=O)c2cc(C3CC3)nc3c2c(C)nn3C)c1C` : provide Percent Effect
output: 15%

input: Item CCOCC(O)CN1CCN(C(=O)c2ccccc2Cl)CC1 (stereo not given) : provide Percent Effect
output: 7.32%

input: Item `O=C1CCCN1Cc1nnc2n1CCN(Cc1ccoc1)CC2` : provide Percent Effect
output: -2.5%

input: Item CN(C)C(CNC(=O)c1cc2c([nH]c1=O)CCCC2=O)c1ccsc1 (stereo not given) : provide Percent Effect
output: 18.3%
